System: CHANG CO[…] No. CCL20.2
Test: Inhibition of cell growth: Chang conjunctival
Assay type: cell-based
Settings: 96 h, read-out: MINIMUM INHIBITORY CONCENTRATIONS (RANGE) WHICH PRODUCE APPROXIMATELY 50% CELL GROWTH REDUCTION
observation_type: IC50

Task: Any idea what IC50 came out for Oc1ccc(C#CC/C=C/c2ccc(O)c(O)c2)cc1O [Product 1, 3',3',4',4',-tetrahydroxyrooperol] on CHANG CO[…] No. CCL20.2?
Result: 20 to 25 µg/mL

Task: Same question, O=C(C#Cc1ccccc1)/C=C/c1ccccc1 this time
Result: 2.5 to 10 µg/mL

Task: Same question, CCOC(=O)C(=Cc1ccccc1)CC#Cc1ccccc1 this time
Result: 25 to 75 µg/mL

Task: Same question, C=CC(=O)C#Cc1ccccc1 this time
Result: 2.5 to 10 µg/mL
